- METHOD: folding stability dG unfold from chymotrypsin proteolysis; higher = more stable
MEASURED ATTRIBUTE: folding stability dG unfold (kcal/mol)
One number for each entry, in kcal/mol.

For orientation, consider the following solved cases.
SGVSVKVTVEGNTITIEVSADAKIKIEVTFPTKKATYEVEVEPGKPVTFTIPLPKDVPKDAFIDKIDIGGSA [r9_1152_TrMRF] | 3.56
SAGGSAGGSAGGNYVVRIEHNGQPIMEQPFPGSLEDAKDYVKEIAQFFPPDKVKIEVYKFSAGGSAGGSAGG [r7_81_TrROS] | 0.458
SAGMITPEELEERIRKLAEETGGPRYRVKVRGPDGPLYEFEVGFTPEEIERLAKELGVDIVEVEPIPESAGG [r19_50_TrMRF] | 3.07
SAGGSMNPSVSVEEEVFPDGVTRLKLTFSDGKELEAEVTRHADGNVQVTLYDKSPGKKTTYTIPLSSAGGSA [r2_99_JUSTAS] | 1.57
SAGGSAMVMITIKIKFPGNEVEINMPAEDLDELLSHPELGDNFEITEIEVMPIPPPPVDPEQAEEKSAGGSA [r15_460_TrROS] | 0.885
SAGGSAGGSMLPLPIESIEVVPRRAPGGKTYYVAFIRLKADGKPLVIEFEADNPGEALEKLEASAGGSAGGS [r20_238_TrMRF] | 1.46

Attention now turns to another entry.
State, in one line, measured folding stability dG unfold of SAGGSAGGSAGDVPPSETVTITVSSEAEKEAIKKEHPEVNLTFTEAEPPVAFDPTSDVTASAGGSAGGSAGG [r17_126_JUSTAS]
1.27

====

- METHOD: folding stability dG unfold (combined trypsin and chymotrypsin); higher = more stable
MEASURED ATTRIBUTE: folding stability dG unfold (kcal/mol)
Answers are plain numbers, in kcal/mol.

SAGGSAGGSAGGKIKILKKNKTKEEIKKELAEKYNVKKIEIKPIKGNTYLVEIEVEPEESAGGSAGGSAGGS [r10_1219_TrMRF] | 0.292

Specify folding stability dG unfold for SAGGMESSVTTTPDPNSDTTTTTTTVPLPDETTTTTTTTTTAPGTVTTTTTTYPPGGTPTTTTSTTASAGGS [r16_733_JUSTAS] and stop.
1.92

====

Task for the reader: assign each of the following sequences its reported folding stability dG unfold.
- METHOD: folding stability dG unfold (combined trypsin and chymotrypsin); higher = more stable
One number for each entry, in kJ/mol.

SLGPLVELAELFPDFEPLGVEEEPLEDGGRLLRVIGRIPEIGAYLLIEVRLPPGGGIESIRAEWVPEDELSA [r9_274_TrMRF] | 16.5

Now examine the next entry.
Give the reported folding stability dG unfold for this sequence. SAGGMTLEELAARVGRVEVEEAEDGGRVLRVTIPLAGPGGPPAPRTFLIEIPPDRPDLTIAEVLARLGSAGG [r13_319_TrMRF]
6.93

====

- METHOD: folding stability dG unfold (combined trypsin and chymotrypsin); higher = more stable
Label scheme for folding stability dG unfold: lower than 10 kJ/mol is condition not met, 10 kJ/mol and above is condition met.

These recorded examples may help you get a feel for the data.
SAGGMVIVIKTPGGASELEIGDLTITTNPDTGLRVAEATPEQIEELLKADALKDIEEIEVLPIEELLSAGGS [r8_493_TrMRF] | condition not met
SAGGSAGGSDKVVEFTFKIPSKDITAEDIAKAVKEAFPGVKKIEVTLYPGEGTAKVKVYLEPSSAGGSAGGS [r20_31_TrMRF] | condition met
SAGEPLGPEKAKELAEELVERVAREIAERLGLAPEEVEVVSVELTPDGRLVLTLRVPEREFTFVFPVEGSAG [r5_565_TrMRF] | condition met
SAGGKTLYVVRITRRVRVDGKLYEVTLTLVAESEEEAEEALRKLAEELEALFPDEIRIEVEKVELPPSAGGS [r16_475_TrROS_Hall] | condition met
SAGGEPMKIRIEIYRMKRKKDPKDGKEKWDMRPVPEYEIPFPPGETLLDILDKLPLPPGYMIKRISIESAGG [r13_716_TrROS] | condition not met
SMSMEEAMEWAEENPDRPVIFINPEDWYIMIYNPKKGKMEMRPITSPEEALEELDDENIDRIYIVPADEISA [r9_775_TrROS] | condition not met

Please turn your attention to the following entry.
Does the reported folding stability dG unfold for SAGGSAGGSAGKPKVKKITLKNPATGETVEAEVVEVDGYLVVRVRNKDDPEKTETFVFKLSAGGSAGGSAGG [r17_73_TrROS_Hall] fall at or above the 10 kJ/mol mark?
condition met

====

- METHOD: folding stability dG unfold from chymotrypsin proteolysis; higher = more stable
MEASURED ATTRIBUTE: folding stability dG unfold (kcal/mol)
Answers are plain numbers, in kcal/mol.

Reference set, count: 3
SAGGSAGGKTISIPGSIEEIQEKLGGPIDEVEHNKPGSGSYKPKNGKPITIHFDSPEDILDFFKSAGGSAGG [r6_19_TrROS] | -0.0753
SAGGSAGGSAGVIVTPEGDRIVTYDPNTGSVTVTPLDAAGNPLTTTVVAPNGPVVTVTELSAGGSAGGSAGG [r17_385_JUSTAS] | 0.871
SAGGSAGGSAGYIKTEHEVTVMEKDPDGGTKMIEVPVKITIPIIPIPPEALEKNPEALKKFLSAGGSAGGSA [r18_114_TrROS] | 0.352

# return folding stability dG unfold for each item in the list
1. SAGTIRGLPAEFAKRIANELAQNGYEIVAVTVTYDPPNGTFKIEVEMRPPNGKVREHDIEIQVRLPPDDSAG [r5_985_TrROS]
2. SAGGSAGGSAGGSSSSLTPIGSSEKLEKLPDSSLRLVTTTTYRDPVTGETSTTTTVTLTDSAGGSAGGSAGG [r7_546_JUSTAS]
3. SAGGSAGGWIEIDPETGTIEIWMPPNDIEPLVDEIAEELGWKVKVKVEPNPEGWVRHTITIPPKSAGGSAGG [r6_419_TrROS]
4. SAGGSAGGSAGGMITTGITVSATDPNSSTSYTVTVPSSVPSSTFPANTAVGSAALAKLLASAGGSAGGSAGG [r17_412_JUSTAS]

1: 2.7; 2: 0.861; 3: 0.281; 4: -0.225

====

Would you kindly list folding stability dG unfold for each of these sequences?
- METHOD: folding stability dG unfold from chymotrypsin proteolysis; higher = more stable
Answers are plain numbers, in kcal/mol.

SAGGSAGGSKEKVIEIKIKVKTKEEAKKKAEELAKELEKKGYKIKKVEIKYDKETKEVTVRIESAGGSAGGS [r20_155_TrROS_Hall] | 4.02

Report folding stability dG unfold for every entry below.
1. SAGMVVTERTEPATGRPYTVTTEEDGSVTGSYPATGDTRSTTLNDRTTFSLPTTSPEVAAAQVEAALAASAG [r14_561_JUSTAS]
2. SAGGMRFRVRLFRPGRWLPPREVEPGAEAALRELPADVPFVVIEFDDPRGRRRVFFRSPEELRRAVAASAGG [r13_299_TrMRF]
3. SAGGNPDGKPDGGVSFVVNVAKTKPYIDPSTGKVYPVVEVKPVVIEVKKDEKLDLSELLKNTDYISVSSAGG [r13_753_TrMRF]

1: -0.313; 2: 0.379; 3: 0.142

====

- METHOD: folding stability dG unfold from chymotrypsin proteolysis; higher = more stable
Assign Y to entries whose folding stability dG unfold meets or exceeds 2 kcal/mol; assign N to the rest.

SMKPPVKVRIRIYNPETGEEIATIEIEFLPDGTVKVTIEIDGKKYEIEMSLDELLEALKKLPFKIVEIEPSA [r9_470_TrROS_Hall] | Y
SAGGSAGGPLVLRIETPEDKVLVLVLPEEAEKLPPKELAEIAAKEFAALPGVKEVKVEIAPLPLSAGGSAGG [r6_710_TrMRF] | N
SAGGSAGGSKELLKNLPPGAKITVEKKEDGTVRITITNKDGSEKEIEIKVNGKIIKLTIKKKPSAGGSAGGS [r20_50_TrROS_Hall] | N
SAGGSAGGSDRYLAVVFVRRADDPTPEVRTFTGIRTLADVERAVADALPADVAEVRIVVFPVRSAGGSAGGS [r20_29_TrMRF] | N
SAGGSAGGSAGGKTVLISLEDLEALKKLPPGAKVKIEPIKTPEGTVYRVNVETGKIEKVPSAGGSAGGSAGG [r7_765_TrROS_Hall] | N

Could you tell me if the measured folding stability dG unfold of SAGGEPPPVRVSFSVEEVTVGAGPVFVRRVVTYDPAEGRVSEFVEVFERGRGGLLGRSSRTVPAEELASAGG [r13_772_TrMRF] reaches 2 kcal/mol or more?
Y

====

- METHOD: folding stability dG unfold (combined trypsin and chymotrypsin); higher = more stable
MEASURED ATTRIBUTE: folding stability dG unfold (kcal/mol)
Answers are plain numbers, in kcal/mol.

SSPKILTESELKITIPMTDPETGKPINLEVTIPLLVDPATGTVEVLEIKITGPEEVQEILKKLIEKLIKESA [r9_619_JUSTAS] | 2.11
SAGGEGEPFRITPDEIQRIFNELAQDHGFNVSISEIQVPGDEVRITISIQHDGGTQSVRLPFRIEKDDSAGG [r13_652_TrROS] | 0.37
SAGGSGGLRVELPFLLPDGYRVTLTVNPETGEITEIRVEPIDAVPPEPEVLPVVGFDPRYGVPLVLSAGGSA [r2_78_TrMRF] | 0.812

State its folding stability dG unfold: SAGGSAGDLELIGVFPFTLPDGRRITVPIFRDPSTGERYLFAETEGEEEDLTPAAIETALAVLERESAGGSA [r15_529_TrMRF]
2.05
